Target: PI3Kδ (p110δ/p85α) Recombinant Human Protein (Homo sapiens (Human))
Sequence (O00329 whole entry): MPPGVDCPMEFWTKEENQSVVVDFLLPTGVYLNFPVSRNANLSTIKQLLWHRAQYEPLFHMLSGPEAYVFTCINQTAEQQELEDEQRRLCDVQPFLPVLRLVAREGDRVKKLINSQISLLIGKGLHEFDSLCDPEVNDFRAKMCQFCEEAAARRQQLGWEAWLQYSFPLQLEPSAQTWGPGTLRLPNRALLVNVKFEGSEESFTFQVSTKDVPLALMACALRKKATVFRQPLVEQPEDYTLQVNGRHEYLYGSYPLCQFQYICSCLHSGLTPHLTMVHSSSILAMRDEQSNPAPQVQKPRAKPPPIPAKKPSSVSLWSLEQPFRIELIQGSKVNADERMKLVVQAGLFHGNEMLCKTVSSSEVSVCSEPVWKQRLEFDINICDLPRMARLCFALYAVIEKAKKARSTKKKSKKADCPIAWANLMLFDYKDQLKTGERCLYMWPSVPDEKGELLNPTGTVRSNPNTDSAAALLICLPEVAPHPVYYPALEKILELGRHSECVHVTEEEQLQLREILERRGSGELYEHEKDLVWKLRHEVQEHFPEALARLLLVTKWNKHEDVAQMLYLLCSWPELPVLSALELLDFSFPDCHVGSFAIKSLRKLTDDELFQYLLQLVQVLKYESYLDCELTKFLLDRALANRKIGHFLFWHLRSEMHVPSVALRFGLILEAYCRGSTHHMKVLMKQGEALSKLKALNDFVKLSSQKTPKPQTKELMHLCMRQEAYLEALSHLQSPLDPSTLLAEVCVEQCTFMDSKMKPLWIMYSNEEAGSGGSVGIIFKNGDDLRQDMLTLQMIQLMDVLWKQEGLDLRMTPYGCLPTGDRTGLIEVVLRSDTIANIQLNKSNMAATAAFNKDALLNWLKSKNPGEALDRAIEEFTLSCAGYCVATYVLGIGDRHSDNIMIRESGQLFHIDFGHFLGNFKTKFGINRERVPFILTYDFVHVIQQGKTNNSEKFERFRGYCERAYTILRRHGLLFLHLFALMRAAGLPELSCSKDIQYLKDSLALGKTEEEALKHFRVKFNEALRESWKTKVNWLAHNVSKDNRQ
Sequence (P27986 whole entry partner): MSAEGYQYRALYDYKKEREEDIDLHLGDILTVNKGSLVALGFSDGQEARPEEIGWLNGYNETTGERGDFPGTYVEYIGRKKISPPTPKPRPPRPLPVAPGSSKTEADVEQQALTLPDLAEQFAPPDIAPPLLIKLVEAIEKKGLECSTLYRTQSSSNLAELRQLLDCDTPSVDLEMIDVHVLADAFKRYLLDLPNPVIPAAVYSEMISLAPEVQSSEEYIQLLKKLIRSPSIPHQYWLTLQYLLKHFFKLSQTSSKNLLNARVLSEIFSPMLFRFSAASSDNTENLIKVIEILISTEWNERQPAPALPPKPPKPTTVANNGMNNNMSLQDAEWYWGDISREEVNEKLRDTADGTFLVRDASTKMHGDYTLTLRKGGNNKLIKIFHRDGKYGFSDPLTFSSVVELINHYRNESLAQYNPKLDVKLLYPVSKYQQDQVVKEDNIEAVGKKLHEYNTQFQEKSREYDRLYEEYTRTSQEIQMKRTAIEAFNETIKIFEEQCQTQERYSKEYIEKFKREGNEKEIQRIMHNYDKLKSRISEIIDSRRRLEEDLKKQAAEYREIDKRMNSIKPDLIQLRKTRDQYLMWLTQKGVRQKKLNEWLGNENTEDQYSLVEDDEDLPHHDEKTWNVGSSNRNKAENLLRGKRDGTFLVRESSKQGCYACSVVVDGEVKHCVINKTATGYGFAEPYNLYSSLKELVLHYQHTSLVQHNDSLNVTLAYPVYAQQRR
Assay: PI3Kδ Scintillation Proximity Assay
Conditions: read-out: PI3K-delta SPA IC50
Excerpt: Example C. PI3Kδ Scintillation Proximity Assay [γ-^33P]ATP (10 mCi/mL) and Wheat Germ Agglutinin (WGA) YSi SPA Scintillation Beads was purchased from Perkin-Elmer (Waltham, Mass.). Lipid kinase substrate, D-myo-Phosphatidylinositol 4,5-bisphosphate (PtdIns(4,5)P2)D (+)-sn-1,2-di-O-octanoylglyceryl, 3-O-phospho linked (PIP2), CAS 204858-53-7, was purchased from Echelon Biosciences (Salt Lake City, Utah). PI3Kδ (p110δ/p85α) Recombinant Human Protein was purchased from Eurofins (St Charles, Mo.). […]
pIC50: −log10 of the molar value. Counter-ions that a name gives are not always drawn.
MEASUREMENT TYPE: pIC50

Reference set, count: 3
1) Cn1nc(C(F)(F)F)cc1-c1ccnc(-c2ncc(-c3ccccc3)[nH]2)c1 [Example 14, trifluoroacetate salt]; < 6.30
2) Cc1[nH]c(-c2cc(-c3cncc(S(C)(=O)=O)c3)ccn2)nc1C(N)=O [Example 249, trifluoroacetate salt]; ≥ 7.30
3) CCc1cnc(-c2cc(-c3cncc(OC)c3)ccn2)[nH]1 [Example 85, trifluoroacetate salt]; < 6.30

INPUT: Fill blank: measured pIC50 of the molecule Cc1[nH]c(-c2cc(-c3cncc(N4CCOCC4)c3)ccn2)nc1C(=O)NC(C)c1cccc(F)c1 (racemic) [Example 277, trifluoroacetate salt] is ____.
OUTPUT: ≥ 7.30

INPUT: Look up pIC50 for this molecule: COCCNCc1nc(-c2cc(-c3cncc(N4CCOCC4)c3)ccn2)[nH]c1C [Example 290]
OUTPUT: ≥ 7.00

INPUT: What value of measured pIC50 is listed for Cc1n[nH]c(C)c1-c1ccnc(-c2ncc(-c3ccccc3)[nH]2)c1 [Example 11, trifluoroacetate salt] ?
OUTPUT: < 6.30

INPUT: Query (molecule): COc1cncc(-c2ccnc(-c3nnc(NC(C)C)[nH]3)c2)c1 [Example 67, trifluoroacetate salt] ; field requested: pIC50
OUTPUT: ≥ 6.30
